- experiment notes: Toxicity liver stage against HepG2, at 10uM
- Format: cell-based
- Design: test concentration 10 uM, cell line HepG2-A16-CD81EGFP
- test settings: human, HepG2-A16-CD81EGFP cells; read-out: INHIBITION
metric: cytotoxicity at 10 µM

INSERT INTO results (compound, value_observed) VALUES
  ('O=C(c1nc2c(s1)CCCN2CC1CC1)N1CCCC1', '15.2%'),
  ('CN(Cc1ccccc1F)Cc1cc2c(cc1Br)OCCO2', '-139%'),
  ('CC(=O)N1CCN(C2CCc3ccccc32)CC1 (stereo not given)', '-44.7%'),
  ('COc1ccc2c(C)c(C(=O)NC3CCOCC3)oc2c1', '15.2%'),
  ('CCc1nccn1-c1cncc(C2CCCN2Cc2cccnc2)n1 (stereo not given)', '5.82%'),
  ('CC1CCCN(C(=O)c2ccc(N(C)Cc3cnn(C)c3)nc2)C1 (stereo not given)', '2.22%'),
  ('CC(OCC1CC1)C(=O)N1CCCN(c2cccnn2)CC1 (stereo not given)', '8.13%'),
  ('O=C(CSc1nncs1)N1CCN(Cc2ccc(Cl)s2)CC1', '-4.14%'),
  ('Cc1cc(CCC2CN(Cc3ccccc3C(=O)O)CCO2)ncn1 (stereo not given)', '-19.9%'),
  ('CS(=O)(=O)Cc1ccc(C(=O)NCc2ccc(Cl)cc2Cl)cc1', '-47.6%'),
  ('COc1ccc(OC)c(C(O)CN2CC(n3cccn3)C2)c1 (stereo not given)', '-8.42%'),
  ('CN1CCN(C(=O)C2CCN(c3cccnn3)CC2)CC1', '-0.353%'),
  ('Cc1nc(CC(=O)N2CCn3c(nnc3C(C)C)C2)cs1', '-12.3%'),
  ('Cn1cc(CN2CCOC(CCNC(=O)c3ccsc3)C2)cn1 (stereo not given)', '2.72%'),
  ('Nc1cc2c(nn1)CCN(C(=O)c1csc(-c3ccccc3)n1)C2', '-12.4%'),
  ('CCN(CC)c1ccc(NS(=O)(=O)c2cncc(F)c2)cn1', '-8.37%'),
  ('O=C(c1ccc(SC(F)F)cc1)N1CCOCC1c1ncon1 (stereo not given)', '4.79%'),
  ('Cc1nnc([C@H]2C[C@H]3OCC[C@H]3N(S(=O)(=O)C3CC3)C2)o1', '-4.11%'),
  ('Cc1noc(C2CCC3(CCN(C(=O)c4c(C)noc4C)CC3)O2)n1 (stereo not given)', '-10.6%'),
  ('CC(C)NS(=O)(=O)c1cc(C(=O)O)cc(-c2ccccc2C#N)c1', '-3.73%'),
  ('Cc1cc(CN2CCC(CNC(=O)c3nccc4ccccc34)C2)[nH]n1 (stereo not given)', '14.1%'),
  ('CCCc1nnc(N2CCC(N3CCCC3)CC2)o1', '-16.3%'),
  ('Cc1nc2c(c(NC(C)C)n1)CCN(C(=O)c1ccno1)CC2', '7.77%'),
  ('Cc1cc(C[C@@H]2CCC[C@H]2NCc2ccccc2C)on1', '-5.28%'),
  ('CC(C)c1noc(CCC(=O)Nc2cc(C(F)(F)F)c[nH]c2=O)n1', '-0.387%'),
  ('O=S(=O)(NCCCN1CCCC1)c1cc(F)cc(F)c1', '8.84%'),
  ('CC(C)(C)c1ncc(C(=O)NCCNC(=O)Cc2ccccc2)s1', '-6.44%'),
  ('CCCc1nnc(NCCCn2nc(C)c(Cl)c2C)o1', '-0.351%'),
  ('c1ccc(SCCN2CCCC(Cn3ccnc3)C2)cc1 (stereo not given)', '2.92%'),
  ('COc1ccc(C(=O)C2CCCN(Cc3ccon3)C2)c(OC)c1 (stereo not given)', '-4.46%'),
  ('Fc1cccc(N2CCc3ncnc(N4CCOCC4)c3CC2)c1', '9.49%'),
  ('NCC(CO)Cc1ccc(C(F)(F)F)cc1 (stereo not given)', '4.42%'),
  ('CCc1noc(C2CCCCN2C(=O)c2cc(C)n(C)n2)n1 (stereo not given)', '11.2%'),
  ('COCC(=O)N1CCC(C)(c2cc(O)[nH]n2)CC1', '-6.92%'),
  ('O=C1CCC2(CCC(NCc3ccsc3)CC2)N1Cc1ccccc1 (stereo not given)', '3.79%');
